# targetEntity: Vasopressin V2 receptor (Rattus norvegicus) (UniProt Q00788)
# Sequence (Q00788 whole entry): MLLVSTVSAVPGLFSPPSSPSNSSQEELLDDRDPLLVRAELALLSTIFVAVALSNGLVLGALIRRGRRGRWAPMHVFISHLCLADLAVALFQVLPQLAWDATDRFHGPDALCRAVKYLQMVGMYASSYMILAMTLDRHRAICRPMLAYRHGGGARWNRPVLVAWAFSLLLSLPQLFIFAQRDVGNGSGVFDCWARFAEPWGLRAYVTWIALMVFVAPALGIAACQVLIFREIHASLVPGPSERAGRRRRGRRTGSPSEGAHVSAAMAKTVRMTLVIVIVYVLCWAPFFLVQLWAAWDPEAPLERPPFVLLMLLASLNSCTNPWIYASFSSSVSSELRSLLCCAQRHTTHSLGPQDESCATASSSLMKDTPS
# experimentSummary: Selectivity ratio (Ki) of affinity at rat Vasopressin V2 receptor to that of rat Vasopressin V1a receptor
assayReadout: Ratio
Answers are plain numbers.

Use these answered entries as a reference point.
Q. Reported Ratio for Cc1nnc(-c2ccc(-c3ccccc3)cc2)n1-c1ccccc1OCCCCCCN1CCN(C)CC1 : what is it?
A. 72

Q. Reported Ratio for CN(C)C1CCN(C(=O)/C=C2/c3ccccc3N(C(=O)c3ccc(NC(=O)c4ccccc4-c4ccccc4)cc3)CCC2(F)F)CC1 : what is it?
A. 4.8

Q. Reported Ratio for Cc1nnc(-c2ccc(-c3ccccc3)cc2)n1-c1ccccc1OCCCCCCN1CCC(N2CCCCC2)CC1 : what is it?
A. 100

State the recorded Ratio for every item in the following list.
1. Cc1cccc(OCc2ccc(C(=O)N3CCC(N4CCCCC4)CC3)cc2)c1-n1c(C)nnc1-c1ccc(-c2ccccc2)cc1
2. Cc1nnc(-c2ccc(-c3ccccc3)cc2)n1-c1ccccc1OCc1ccc(C(=O)N2CCN(C)CC2)cc1

A.
1: 57; 2: 5.8

Q. Reported Ratio for Cc1cccc(OCCCCCCN2CCN(C)CC2)c1-n1c(C)nnc1-c1ccc(-c2ccccc2)cc1 : what is it?
A. 110

* * *

# targetEntity: Vasopressin V2 receptor (Homo sapiens, UniProt P30518)
# Sequence (P30518 whole entry): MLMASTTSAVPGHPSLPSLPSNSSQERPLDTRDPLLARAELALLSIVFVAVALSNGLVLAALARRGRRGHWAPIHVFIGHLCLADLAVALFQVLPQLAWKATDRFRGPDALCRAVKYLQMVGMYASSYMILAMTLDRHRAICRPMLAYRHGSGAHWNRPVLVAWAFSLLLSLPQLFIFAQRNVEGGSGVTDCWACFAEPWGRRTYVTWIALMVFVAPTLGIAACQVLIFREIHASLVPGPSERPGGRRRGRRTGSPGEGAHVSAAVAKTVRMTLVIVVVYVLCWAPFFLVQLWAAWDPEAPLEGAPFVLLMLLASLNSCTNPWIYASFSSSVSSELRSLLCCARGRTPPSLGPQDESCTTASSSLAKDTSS
Please go through the items and note down their Ki.
For clarity, give the value followed by its unit.

Q. Reported Ki for COc1ccccc1-n1c(C)nnc1-c1ccc(-c2ccccc2)cc1 : what is it?
A. 2460 nM

Q. Reported Ki for CN(C)C1CCN(C(=O)/C=C2/c3ccccc3N(C(=O)c3ccc(NC(=O)c4ccccc4-c4ccccc4)cc3)CCC2(F)F)CC1 : what is it?
A. 1.19 nM

Q. Reported Ki for Cc1nnc(-c2ccc(-c3ccccc3)cc2)n1-c1ccccc1OCCCCCCn1ccnc1 : what is it?
A. 11100 nM

Q. Reported Ki for Cc1nnc(-c2ccc(-c3ccccc3)cc2)n1-c1ccccc1OCCCCN1CCN(C)CC1 : what is it?
A. 10200 nM

// below: Ki requested for another compound
Q. Reported Ki for Cc1nnc(-c2ccc(-c3ccccc3)cc2)n1-c1ccccc1OCCCCCCCN1CCN(C)CC1 : what is it?
A. 2470 nM

* * *

# Ki measurements, system: UniProt:P37288
# Sequence (P37288 whole entry): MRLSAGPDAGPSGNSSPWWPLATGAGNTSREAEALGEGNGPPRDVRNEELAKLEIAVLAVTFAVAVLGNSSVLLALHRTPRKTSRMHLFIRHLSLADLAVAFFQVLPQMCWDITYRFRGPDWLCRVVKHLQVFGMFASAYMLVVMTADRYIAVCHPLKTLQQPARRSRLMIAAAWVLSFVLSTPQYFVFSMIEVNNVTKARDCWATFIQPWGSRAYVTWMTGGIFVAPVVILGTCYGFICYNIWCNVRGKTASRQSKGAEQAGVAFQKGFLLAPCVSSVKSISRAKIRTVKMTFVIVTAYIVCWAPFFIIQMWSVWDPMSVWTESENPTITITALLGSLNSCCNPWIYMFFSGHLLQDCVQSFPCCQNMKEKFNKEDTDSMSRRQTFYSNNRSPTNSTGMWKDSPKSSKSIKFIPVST
Answers are plain numbers, in nM.

Use these answered entries as a reference point.
Q. Reported Ki for Cc1nnc(-c2ccc(-c3ccccc3)cc2)n1-c1ccccc1OCc1ccc(C(=O)N2CCN(C)CC2)cc1 : what is it?
A. 3.03

Q. Reported Ki for CN(C)C1CCN(C(=O)/C=C2/c3ccccc3N(C(=O)c3ccc(NC(=O)c4ccccc4-c4ccccc4)cc3)CCC2(F)F)CC1 : what is it?
A. 0.62

Q. Reported Ki for Cc1cccc(OCCCCCCN2CCN(C)CC2)c1-n1c(C)nnc1-c1ccc(-c2ccccc2)cc1 : what is it?
A. 1.46

Q. Reported Ki for Cc1nnc(-c2ccc(-c3ccccc3)cc2)n1-c1ccccc1OCCCC1CCNCC1 : what is it?
A. 7.84

Q. Reported Ki for Cc1nnc(-c2ccc(-c3ccccc3)cc2)n1-c1ccccc1OCCCCCCn1ccnc1 : what is it?
A. 9.06

State the recorded Ki for every item in the following list.
1. Cc1nnc(-c2ccc(-c3ccccc3)cc2)n1-c1ccccc1OCCCCCCCCCCN1CCN(C)CC1
2. Cc1nnc(-c2ccc(-c3ccccc3)cc2)n1-c1ccccc1OCCCCCCN1CCCCC1

A.
[39.4, 13.9]

State the recorded Ki for every item in the following list.
1. Cc1nnc(-c2ccc(-c3ccccc3)cc2)n1-c1ccccc1OCCCCC1CCNCC1
2. Cc1nnc(-c2ccc(-c3ccccc3)cc2)n1-c1ccccc1OCCCN1CCN(C)CC1

A.
1. 2.12
2. 38.3
